- assay notes: Plasma toxicokinetics after single i.v. bolus
- Type: in vivo, Sprague-Dawley rats
- condition notes: male, Sprague-Dawley, rat, plasma, iv, 1 mg/kg
endpoint: MRT (h)
The figure you give is taken to be in h; do not add the unit.

Data point: C1=CCC(c2cccnc2)NC1 (racemic) [Anatabine, 1,2,3,6-tetrahydro-[2,3′]bipyridinyl] ; MRT = 2.18

----------
- assay notes: Plasma toxicokinetics after single i.v. bolus
- Format: in vivo, Sprague-Dawley rats
- condition notes: male, Sprague-Dawley, rat, plasma, intravenous, 0.75 mg/kg, Anatabine 0.75 mg/kg; male; 0.5 hr (1st 0.5 hr line); read-out: Avg. Conc. rat plasma
endpoint: concentration at 0.5 h (ng/mL)
Supply the numeric figure in ng/mL, leaving out any unit text.

Sure, the documented concentration at 0.5 h for C1=CCC(c2cccnc2)NC1 (racemic) [Anatabine, 1,2,3,6-tetrahydro-[2,3′]bipyridinyl] is 181
